System: Ipomea hederaceae (IPOHE)
method.notes: Post-emergence biological efficacy (Example 14)
Format: in vivo
conditions.used: Ipomoea hederacea, 312 h; post-emergence, 1,000 g/ha, after 13 days; read-out: Percentage damage IPOHE
Please note: Y applies when pest or weed control at 1000 g/ha is 70% or greater, and N applies otherwise.

- C/C=C/c1c(N)nc(-c2ccc(Cl)c(N(C)C)c2F)nc1C(=O)OC: N
- C=Cc1c(NCc2ccccc2[N+](=O)[O-])nc(-c2ccc(Cl)c(OC)c2F)nc1C(=O)OC: Y
- C/C=C\c1c(N)nc(-c2ccc(Cl)c(N(C)C)c2F)nc1C(=O)OC: N
- C/C=C\c1c(N)nc(-c2ccc(Cl)c(OC)c2F)nc1C(=O)OC: Y
- C=Cc1c(NCc2ccco2)nc(-c2ccc(Cl)c(OC)c2F)nc1C(=O)OCCOCC: N

## Task Please tell me: is the molecule C=Cc1c(NCc2ccco2)nc(-c2ccc(Cl)cc2)nc1C(=O)OC at or over 70% in terms of pest or weed control at 1000 g/ha?
## Result Y

## Task Please tell me: is the molecule C=Cc1c(NCc2ccccc2[N+](=O)[O-])nc(-c2ccc(Cl)c(N(C)C)c2F)nc1C(=O)OC at or over 70% in terms of pest or weed control at 1000 g/ha?
## Result N

## Task Please tell me: is the molecule C=Cc1c(NCc2ccccc2F)nc(-c2ccc(Cl)c(OC)c2F)nc1C(=O)OC at or over 70% in terms of pest or weed control at 1000 g/ha?
## Result N

## Task Please tell me: is the molecule C=Cc1c(N)nc(-c2ccc(Cl)nc2)nc1C(=O)OC at or over 70% in terms of pest or weed control at 1000 g/ha?
## Result N

----------
Recorded pest or weed control at 1000 g/ha values for a group of compounds are listed next.
System: Solanum nigrum (SOLNI)
method.notes: Post-emergence biological efficacy (Example 14)
Type: in vivo
conditions.used: Solanum nigrum, 312 h; post-emergence, 1,000 g/ha, after 13 days; read-out: Percentage damage SOLNI
Record the result as a number with its unit.

Sample answers from the record:
- C=Cc1c(NCc2ccco2)nc(-c2ccc(Cl)c(OC)c2F)nc1C(=O)O: 90%
- C=Cc1c(NCc2ccco2)nc(-c2ccc(Cl)c(OC)c2F)nc1C(=O)OCc1ccccc1: 80%
- C/C=C\c1c(N)nc(-c2ccc(Cl)c(OC)c2F)nc1C(=O)OC: 80%
- C=Cc1c(NCc2ccco2)nc(-c2ccc(Cl)cc2)nc1C(=O)OC: 90%

Consider now this further compound.
// field: pest or weed control at 1000 g/ha; key: C=Cc1c(NCc2ccccc2F)nc(-c2ccc(Cl)c(OC)c2F)nc1C(=O)OC ; value = 90%

----------
Recorded pest or weed control at 1000 g/ha values for a group of compounds are listed next.
System: Echinochloa crus-galli (ECHCG)
method.notes: Post-emergence biological efficacy (Example 14)
Assay type: in vivo
conditions.used: Echinochloa crus-galli, 312 h; post-emergence, 1,000 g/ha, after 13 days; read-out: Percentage damage ECHCG

Sample answers from the record:
- C=Cc1c(NCc2ccco2)nc(-c2ccc(Cl)cc2)nc1C(=O)OC: 40%
- C=Cc1c(N)nc(-c2ccc(Cl)c(N(C)C)c2F)nc1C(=O)OC: 100%
- C=Cc1c(NCc2ccccc2[N+](=O)[O-])nc(-c2ccc(Cl)c(N(C)C)c2F)nc1C(=O)OC: 70%

Consider now this further compound.
Known value: Echinochloa crus-galli (ECHCG) pest or weed control at 1000 g/ha of the compound C/C=C/c1c(N)nc(-c2ccc(Cl)c(N(C)C)c2F)nc1C(=O)OC equals 80%

----------
Recorded pest or weed control at 8 g/ha values for a group of compounds are listed next.
Tested on: ABUTH Abutilon theophrasti
method.notes: Post-emergence crop and weed test (Example 15)
Type: in vivo
conditions.used: 360 h, 8 g/ha, after 15 days, read-out: Percentage damage ABUTH
Experimental: Seeds of crop and representative weed species were sown in standard soil in pots. After cultivation for 14 days under controlled conditions in a glasshouse (at 22/16° C., day/night; 16 hours light; 65% humidity), the plants were sprayed. […] The test plants were then grown on under controlled conditions in a glasshouse (at 22/16° C., day/night; 16 hours light; 65% humidity) and watered twice daily. After 15 days the test was evaluated (100 =total damage to plant; 0 =no damage to plant).
Record the result as a number with its unit.

Sample answers from the record:
• C=Cc1c(N)nc(-c2ccc(Cl)c(OC)c2F)nc1C(=O)O = 90%
• C=Cc1c(N)nc(C2CC2)nc1C(=O)OC [Ref. Ex. C, reference compound] = 30%
• C/C=C\c1c(N)nc(-c2ccc(Cl)c(OC)c2F)nc1C(=O)OC = 60%

// field: pest or weed control at 8 g/ha; key: C=Cc1c(N)nc(-c2ccc(Cl)c(OC)c2F)nc1C(=O)OC ; value = 80%

// field: pest or weed control at 8 g/ha; key: COC(=O)c1nc(-c2ccc(Cl)c(OC)c2F)nc(N)c1Cl [Ref. Ex. B, reference compound] ; value = 90%

----------
Tested on: AMARE Amaranthus retroflexus
method.notes: Post-emergence crop and weed test (Example 15)
Type: in vivo
conditions.used: 360 h, 30 g/ha, after 15 days, read-out: Percentage damage AMARE
metric: pest or weed control at 30 g/ha (%)
Give just the numeric value; % need not be written.

• COC(=O)c1nc(-c2ccc(Cl)c(N(C)C)c2F)nc(N)c1Cl [Ref. Ex. A, reference compound] = 100
• C/C=C\c1c(N)nc(-c2ccc(Cl)c(N(C)C)c2F)nc1C(=O)OC [Compound 5] = 90
• C=Cc1c(N)nc(-c2ccc(Cl)c(N(C)C)c2F)nc1C(=O)OC [Compound 1] = 100

// field: pest or weed control at 30 g/ha; key: C=Cc1c(NCc2ccco2)nc(-c2ccc(Cl)cc2)nc1C(=O)OC [Compound 7] ; value = 50

----------
System: SINAR Sinapis arvensis
method.notes: Post-emergence crop and weed test (Example 15)
Format: in vivo
conditions.used: Mutarda arvensis, 360 h, 30 g/ha, after 15 days, read-out: Percentage damage SINAR
Recorded pest or weed control at 30 g/ha values for a group of molecules are listed next.
Record the result as a number with its unit.

Sample answers from the record:
* C=Cc1c(NCc2ccco2)nc(-c2ccc(Cl)cc2)nc1C(=O)OC [Compound 7] | 60%
* C/C=C\c1c(N)nc(-c2ccc(Cl)c(N(C)C)c2F)nc1C(=O)OC [Compound 5] | 80%
* COC(=O)c1nc(-c2ccc(Cl)c(N(C)C)c2F)nc(N)c1Cl [Ref. Ex. A, reference compound] | 70%

Consider now this further molecule.
// field: pest or weed control at 30 g/ha; key: C=Cc1c(N)nc(-c2ccc(Cl)c(N(C)C)c2F)nc1C(=O)OC [Compound 1] ; value = 10%

----------
Recorded pest or weed control at 1000 g/ha values for a group of compounds are listed next.
Tested on: Solanum nigrum (SOLNI)
method.notes: Post-emergence biological efficacy (Example 14)
Format: in vivo
conditions.used: Solanum nigrum, 312 h; post-emergence, 1,000 g/ha, after 13 days; read-out: Percentage damage SOLNI
Give just the numeric value; % need not be written.

Sample answers from the record:
• C/C=C/c1c(N)nc(-c2ccc(Cl)c(OC)c2F)nc1C(=O)OC [Compound 3] = 100
• C=Cc1c(N)nc(-c2ccc(Cl)nc2)nc1C(=O)OC [Compound 8] = 90

Consider now this further compound.
// field: pest or weed control at 1000 g/ha; key: C=Cc1c(NC2CCC2)nc(-c2ccc(Cl)c(OC)c2F)nc1C(=O)OC [Compound 24] ; value = 90

----------
Recorded pest or weed control at 1000 g/ha values for a group of compounds are listed next.
Tested on: Ipomea hederaceae (IPOHE)
method.notes: Post-emergence biological efficacy (Example 14)
Assay type: in vivo
conditions.used: Ipomoea hederacea, 312 h; post-emergence, 1,000 g/ha, after 13 days; read-out: Percentage damage IPOHE
Give just the numeric value; % need not be written.

• C/C=C/c1c(N)nc(-c2ccc(Cl)c(OC)c2F)nc1C(=O)OC = 90
• C=Cc1c(NCc2ccco2)nc(-c2ccc(Cl)c(OC)c2F)nc1C(=O)OCc1ccccc1 = 80
• C=Cc1c(NCc2ccco2)nc(-c2ccc(Cl)c(OC)c2F)nc1C(=O)OC = 80

// field: pest or weed control at 1000 g/ha; key: C=Cc1c(N)nc(-c2ccc(Cl)c(N(C)C)c2F)nc1C(=O)OC ; value = 90

// field: pest or weed control at 1000 g/ha; key: C=Cc1c(NCc2ccco2)nc(-c2ccc(Cl)c(N(C)C)c2F)nc1C(=O)OC ; value = 40

----------
Recorded pest or weed control at 125 g/ha values for a group of compounds are listed next.
Test system: IPOHE Ipomoea hederacea
method.notes: Post-emergence crop and weed test (Example 15)
Format: in vivo
conditions.used: 360 h, 125 g/ha, after 15 days, read-out: Percentage damage IPOHE
Give just the numeric value; % need not be written.

* C=Cc1c(NCc2ccco2)nc(C2CC2)nc1C(=O)OC [Ref. Ex. F, reference compound] | 70
* C=Cc1c(N)nc(-c2ccc(Cl)c(F)c2)nc1C(=O)OC [Compound 9] | 80
* C/C=C/c1c(N)nc(-c2ccc(Cl)c(OC)c2F)nc1C(=O)OC [Compound 3] | 80

// field: pest or weed control at 125 g/ha; key: COC(=O)c1nc(-c2ccc(Cl)c(OC)c2F)nc(NCc2ccco2)c1Cl [Ref. Ex. E, reference compound] ; value = 90

// field: pest or weed control at 125 g/ha; key: C/C=C/c1c(N)nc(C2CC2)nc1C(=O)OC [Ref. Ex. D, reference compound] ; value = 70

// field: pest or weed control at 125 g/ha; key: C=Cc1c(NCc2ccco2)nc(-c2ccc(Cl)c(OC)c2F)nc1C(=O)OC [Compound 6] ; value = 80
